molecular target: UniProt Q99705; test: Radioligand Binding Assay (IC50) and Functional Assay (EC50/IC50); conditions: pH 7.4; 22 °C
Sequence (Q99705 as listed by the source): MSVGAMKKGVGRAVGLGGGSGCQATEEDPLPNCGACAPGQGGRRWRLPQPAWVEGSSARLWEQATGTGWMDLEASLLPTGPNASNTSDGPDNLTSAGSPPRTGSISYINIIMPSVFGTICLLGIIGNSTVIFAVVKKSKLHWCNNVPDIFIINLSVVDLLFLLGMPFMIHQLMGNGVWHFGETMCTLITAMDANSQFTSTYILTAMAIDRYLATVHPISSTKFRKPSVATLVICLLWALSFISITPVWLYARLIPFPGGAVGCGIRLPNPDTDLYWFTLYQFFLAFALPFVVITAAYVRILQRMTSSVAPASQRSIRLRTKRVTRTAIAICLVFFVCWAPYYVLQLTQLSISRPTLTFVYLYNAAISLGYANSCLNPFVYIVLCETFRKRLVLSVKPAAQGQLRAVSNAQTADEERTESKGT
Reported IC50 values for the following molecules.
propertyMeasured: IC50 (nM)

• CN(c1nc2ccc(NC(=O)CCc3ccc(C(F)(F)F)cc3)cc2[nH]1)C1CCCC1 = 22
• CC(C)N(C)c1nc2ccc(NC(=O)CCc3ccc(C(F)(F)F)cc3)cc2[nH]1 = 21
• CN(c1nc2ccc(NC(=O)CCc3ccc(C(F)(F)F)cc3)cc2[nH]1)C1CCCCC1 = 27
